Quick list: Percent Effect per entry.
- Tested on: Wolbachia pipientis
- Protocol description: Anti-Wolbachia Cell-Based Screen
- Assay type: functional
- Parameters: scale not given: in the data most compounds retested in dose-response had high values
- Condition parameters: 5 µM
Out of some 48,000 compounds screened, about 13,000 (27%) showed an effect of 50% or more. This is one part of the list.
Metric: Percent Effect (%)

[[record]]
compound = "c1cnn(CC2CN(CC3CCCCC3)CCO2)c1 (centres undefined)"
assay_value = 102.2

[[record]]
compound = "CNC(=O)c1ccc(-c2ccc(CNC(=O)COC)cc2)nc1C"
assay_value = 125.2

[[record]]
compound = "CCN(CC)C(=O)c1ccc(-c2ccsc2)nc1C"
assay_value = 7.441

[[record]]
compound = "N#Cc1cc(Br)ccc1NC1CCN(CC(N)=O)CC1"
assay_value = -6.071

[[record]]
compound = "O=S(=O)(CCN1CCOC(Cn2cccn2)C1)C(F)(F)F (centres undefined)"
assay_value = 8.008

[[record]]
compound = "O=C(c1cscn1)N1CCCC12CCCN(S(=O)(=O)c1ccccc1)C2 (centres undefined)"
assay_value = -2.919

[[record]]
compound = "Clc1cccc(CNC2CCN(CCc3ccncc3)CC2)c1"
assay_value = -6.723

[[record]]
compound = "Cl.Clc1cccc(N[C@H]2CCCN[C@H]2Cc2ccccc2)c1"
assay_value = 152.2

[[record]]
compound = "CCCc1cc(CNC2CCN(c3nc(C)cc(C)n3)CC2)on1"
assay_value = 99.03

[[record]]
compound = "Cc1cc(C)nc(N2CCC(NCCSc3nnnn3C)CC2)n1"
assay_value = -14.51

[[record]]
compound = "CCCc1cc(N2CCC(NC3CCS(=O)(=O)C3)CC2)nc(C)n1 (centres undefined)"
assay_value = -13.12

[[record]]
compound = "CN(C(=O)c1cccc(C(=O)NS(C)(=O)=O)c1)c1ccccc1"
assay_value = -9.633

[[record]]
compound = "CCC1(CO)CCCN(C(=O)c2ccc(N3CCN(C)CC3)cc2)C1 (centres undefined)"
assay_value = -10.61

[[record]]
compound = "CCN1CCCC1CN(CCN(C)C)S(=O)(=O)c1cccc(C#N)c1 (centres undefined)"
assay_value = -13.07

[[record]]
compound = "O=C(Cc1cccc(Cl)c1)N[C@@H]1CCNC[C@H]1O"
assay_value = 4.451

[[record]]
compound = "CN1CCN(C(C)(C)CNC(=O)C2CCCN2S(C)(=O)=O)CC1 (centres undefined)"
assay_value = 10.51

[[record]]
compound = "CCc1ccc(C(=O)N2CCCC3(CCCC(=O)N3C)C2)cc1 (centres undefined)"
assay_value = 97.96

[[record]]
compound = "O=C(NC1CCS(=O)(=O)C1)c1ccc(SCc2cscn2)cc1 (centres undefined)"
assay_value = -5.861

[[record]]
compound = "O=C(O)C(F)(F)F.O=C(O)C(F)(F)F.c1ccc(OCc2n[nH]c3c2CN(Cc2cccs2)C3)nc1"
assay_value = -9.854

[[record]]
compound = "Cc1nccn1CCCC(=O)N1CCCC(c2noc(C(C)C)n2)C1 (centres undefined)"
assay_value = 94.02

[[record]]
compound = "Cc1c(C(=O)N(C)c2ccccc2)cccc1N(C)S(C)(=O)=O"
assay_value = 104.7

[[record]]
compound = "CCCc1nc(CNc2nc(C)nc3oc(C)nc23)cs1"
assay_value = -12.23

[[record]]
compound = "O=C(CCc1cccs1)N1CCc2[nH]nc(COc3ccccc3)c2C1"
assay_value = 98.05

[[record]]
compound = "CCCc1cc(N2CCC(NC3CCOCC3)CC2)nc(C)n1"
assay_value = 29.8

